molecular target: THR beta (Homo sapiens, UniProt P10828); construct: expressed in transfected cells; host or cells: HEK293T (ATCC CRL-3216); assay: HEK293T THR beta/RXR luciferase reporter assay (Assay 2); type: cell-based; settings: HEK293T reporter THRbeta/RXR; read-out: EC50 β
Sequence (P10828 whole entry): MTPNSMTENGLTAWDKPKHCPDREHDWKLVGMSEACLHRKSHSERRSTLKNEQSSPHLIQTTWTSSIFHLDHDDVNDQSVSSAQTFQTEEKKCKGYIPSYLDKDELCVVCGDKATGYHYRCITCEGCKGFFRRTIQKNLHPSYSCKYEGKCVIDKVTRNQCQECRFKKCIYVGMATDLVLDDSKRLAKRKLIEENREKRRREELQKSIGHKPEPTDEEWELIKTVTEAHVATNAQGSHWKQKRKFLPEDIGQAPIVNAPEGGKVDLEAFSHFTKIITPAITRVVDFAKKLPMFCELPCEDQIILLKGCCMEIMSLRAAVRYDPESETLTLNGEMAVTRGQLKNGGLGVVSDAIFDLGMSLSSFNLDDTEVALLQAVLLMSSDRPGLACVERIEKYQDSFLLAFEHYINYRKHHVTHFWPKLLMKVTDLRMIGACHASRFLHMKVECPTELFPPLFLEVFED
Sequence (P19793 whole entry partner): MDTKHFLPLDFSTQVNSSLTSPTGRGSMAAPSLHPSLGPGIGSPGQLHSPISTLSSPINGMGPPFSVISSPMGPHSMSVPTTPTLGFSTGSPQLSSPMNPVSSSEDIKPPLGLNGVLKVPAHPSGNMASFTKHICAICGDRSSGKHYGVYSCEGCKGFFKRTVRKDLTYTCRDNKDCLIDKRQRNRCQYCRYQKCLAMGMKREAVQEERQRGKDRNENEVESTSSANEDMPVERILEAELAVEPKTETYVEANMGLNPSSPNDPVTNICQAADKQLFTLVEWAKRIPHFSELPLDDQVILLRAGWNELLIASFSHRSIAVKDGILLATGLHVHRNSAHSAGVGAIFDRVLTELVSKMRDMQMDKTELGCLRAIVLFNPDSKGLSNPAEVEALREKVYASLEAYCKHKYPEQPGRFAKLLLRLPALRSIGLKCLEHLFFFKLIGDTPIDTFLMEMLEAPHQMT
Observation type: pEC50
Schema: pEC50 number; meaning minus log10 of the concentration expressed in molar units.

Please tell me: pEC50 of Nc1nn(-c2cc(Cl)c(Oc3cc(C4CCC4)c(=O)[nH]n3)c(Cl)c2)c(=O)[nH]c1=O [Compound 40] , system THR beta (Homo sapiens, UniProt P10828)?
7.24
